ASSAYED_TARGET: FXa (Homo sapiens)
Sequence (P00742 235-488 limits assumed): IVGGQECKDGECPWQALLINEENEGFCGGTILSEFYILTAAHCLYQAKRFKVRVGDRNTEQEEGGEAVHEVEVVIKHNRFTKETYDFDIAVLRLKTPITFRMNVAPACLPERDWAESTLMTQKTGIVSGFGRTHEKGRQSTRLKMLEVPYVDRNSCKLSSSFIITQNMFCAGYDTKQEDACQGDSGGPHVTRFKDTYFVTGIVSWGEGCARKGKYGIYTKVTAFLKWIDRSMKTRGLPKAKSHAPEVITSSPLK
Sequence (P00742 41-179 partner limits assumed): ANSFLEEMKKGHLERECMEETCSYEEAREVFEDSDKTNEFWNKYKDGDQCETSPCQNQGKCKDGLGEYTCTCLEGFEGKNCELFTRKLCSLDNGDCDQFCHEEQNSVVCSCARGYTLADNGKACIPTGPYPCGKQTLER
pIC50: −log10 of the molar value.
MEASURED_ATTRIBUTE: pIC50

Reported pIC50 for Nc1nccc2c(NCC34COC(COc5ccc6nccn6c5)(C3)C4)cccc12 [Example 2022] : what is it?
< 4.40

# input molecule: Cc1cc2c(NCC34CC(COc5ccn6ccnc6c5)(CCO3)C4)ccnc2[nH]1 [Example 10907] ; wanted: its pIC50
< 4.40

Returns the measured pIC50 for the input molecule. Input: Cc1cnc2ccc(OCC34COC(CNc5cccc6c(N)nccc56)(C3)C4)cn12 [Example 6624]
5.52 to 6.00

Would you mind telling me what pIC50 value was observed for Cc1cc(OCC23CN(C(=O)NCc4ccccc4)C(CNc4cccc5c(N)nccc45)(C2)C3)cc(=O)n1C [Example 12038] ?
5.52 to 6.00

Given the entry Nc1nccc2c(NCC34CC(COC5CCn6ccnc6C5)(C3)C4)cccc12 (racemic) [Example 1002] , report its measured pIC50.
4.40 to 5.00

What measured pIC50 goes with Nc1nccc2c(NCC34CC(CN5CCn6ccnc6C5)(C3)C4)cccc12 [Example 1004] ?
5.52 to 6.00

Would you kindly share the measured pIC50 for Nc1nccc2c(NCC34CC(COc5ccc6c(c5)CNC6=O)(CO3)C4)cccc12 [Example 6618] ?
4.40 to 5.00
